tested on: PBMC; assay: Antiinflammatory activity in human PBMC assessed as inhibition of MIF-induced IL-6 production at 100 uM after 21 hrs by ELISA; assay type: functional
Tick Met if inhibition at 100 µM is 40% or greater. Tick Not met if inhibition at 100 µM is less than 40%.

compound | cat
COC(=O)C1(C)CC(c2cn(-c3cccc(C(F)(F)F)c3)c3ccccc23)=NO1 (stereo not given) | Met
COC(=O)CC1(C(=O)OC)CC(c2ccoc2)=NO1 (stereo not given) | Met
FC(F)(F)c1cccc(-n2cc(C3=NOC(Cn4ccc5ccccc54)C3)c3ccccc32)c1 (stereo not given) | Not met
COC(=O)C1(C)CC(c2ccoc2)=NO1 (stereo not given) | Not met
COc1ccc(C2CC(c3cn(-c4cccc(C(F)(F)F)c4)c4ccccc34)=NO2)cc1 (stereo not given) | Not met
CC1(C(=O)O)CC(c2cn(-c3cccc(C(F)(F)F)c3)c3ccccc23)=NO1 (stereo not given) | Met
COC(=O)CC1CC(c2ccc(O)cc2)=NO1 (stereo not given) | Not met
FC(F)(F)c1cccc(-n2cc(C3=NOC(C4CCCCC4)C3)c3ccccc32)c1 (stereo not given) | Not met
O=C1c2ccccc2C(=O)N1C1CC(c2cn(-c3cccc(C(F)(F)F)c3)c3ccccc23)=NO1 (stereo not given) | Not met
FC(F)(F)c1cccc(-n2cc(C3=NOC(CN4CCOCC4)C3)c3ccccc32)c1 (stereo not given) | Not met

Data provenance is ChEMBL document CHEMBL1681642.
